The origin of these recorded values is patent US12551573B2.

tested on: HBEGF locus; format: cell-based, human; conditions: high-throughput screen of dXR repression of the HBEGF gene; change in abundance of each domain in the library before and after diphtheria toxin selection
ENDPOINT LABEL: Log2 (fold change)
Answers are plain numbers.

>>> reading("DOMAIN_5125 (protein, listed as Callithrix sp.) MPANEDTPQPGGHGSACEVSVSFEDVTVDFSREEWQQLDSTQRRLYQDVMLENYSHLLSVGFEVPKPEVIFKLEQGEGPWT")
2.911

Note to self: Log2 (fold change) recorded for DOMAIN_980 (protein, Pan troglodytes) MPLKAQYQEMVTFEDVAVHFTKTEWTGLSPAQRALYRSVMLENFGNLTALGYPVPKPALISLLEGGDMAWGLEAQDDPPAE was 2.9297
